What TGI was measured for each of the following?
test system: U251 CNS; assay: NCI tumour cell line growth inhibition, 48 h

CC1(C)CNCC(C)(OCc2ccccc2)C(=O)NC(C)(C)CNCC(C)(OCc2ccccc2)C(=O)N1 (stereo not given) :: > 10 µM
CC(N)Cc1ccc(Cl)c(Cl)c1 (stereo not given) :: > 89.6 µM
O=C(CC1SC(=Nc2ccccc2Cl)NC1=O)Nc1ccc(Cl)cc1Cl (stereo not given) :: > 100 µM

Provide each entry's TGI from the list below.
1. O=C(O)c1cccc(C(=O)O)c1S(=O)Cc1ccccc1 (stereo not given)
2. Cc1cc(N(CCC#N)CCC#N)ccc1/C(N=Nc1cccc(Cl)c1)=N/NC(=O)c1cc(Cl)ccc1O

## Output
1. > 100 µM
2. > 100 µM

---

test system: SNB-75 CNS; assay: NCI tumour cell line growth inhibition, 48 h
Exercise: state measured GI50 for each of the compounds provided.

Solved cases (6 shown):
c1ccc2cc(-c3n(Cc4ccc5ccccc5n4)c4ccccc4[n+]3Cc3ccc4ccccc4n3)ccc2c1 :: 190 nM
O=C(Nc1cccc(-n2cc(-c3ccncc3)c(-c3cc(O)cc(Cl)c3)n2)c1)c1cc(C(F)(F)F)cc(C(F)(F)F)c1 :: 2800 nM
O=C(CC1(O)C(=O)N(Cc2ccccc2)c2ccccc21)c1ccc(C(=O)NCC2CCC3(CC2)OOC2(CCCCC2)OO3)cc1 (centres undefined) :: 1580 nM
Oc1cccc2ccc(N/N=C/c3cc(CN4CCOCC4)c(O)c4ncccc34)nc12 :: 25.3 nM
CC1(C)CC(=O)C2=C(C1)OC(N)=C(c1nc(-c3ccccc3)cs1)C2c1ccc(Br)cc1 (centres undefined) :: 0.547 µg/mL
COc1cc2c(cc1OCCCCN1CCN(C(=S)SCCC(C#N)(c3ccccc3)c3ccccc3)CC1)N=C[C@@H]1CCCN1C2=O :: 1640 nM

For each of the compounds below, note its GI50.
1. COc1ccc(-c2nc(/C=C3\SC(=NCc4ccccc4)NC3=O)c3ccccn23)cc1
2. CCC1(O)C(=O)OCc2c1cc1n(c2=O)Cc2cc3c(NC(=O)CN)cccc3nc2-1 (centres undefined)
3. N#CCN1CCn2c1nsc2=S

## Output
["1510 nM", "346 nM", "> 100000 nM"]

---

test system: SK-MEL-2 melanoma; test: NCI tumour cell line growth inhibition, 48 h
Task for the reader: assign each of the following molecules its reported TGI.

Give TGI for each listed item.
1. CCOC(=O)NNC(=O)NCc1cccc(CNC(=O)NNC(=O)OCC)c1
2. CCOC(=O)c1nc2cc(C(F)(F)F)ccc2nc1Nc1ccc(OC)cc1
3. Nc1nc(O)c2ncn([C@H]3CC[C@@H](CO)O3)c2n1
4. CCC1(O)C(=O)OCc2c1cc1n(c2=O)Cc2cc3c(NC(=O)CN)cccc3nc2-1 (centres undefined)
5. NC(=O)c1csc(C2OC(COP(=O)(O)CP(=O)(O)OCC3OC(n4cnc5c(N)ncnc54)C(O)C3O)C(O)C2O)n1 (centres undefined)
6. NS(=O)(=O)c1nnc(NS(=O)(=O)C(F)(F)F)s1

## Output
1. > 100 µM
2. > 100 µM
3. > 100 µM
4. 41.1 µM
5. > 100 µM
6. > 100 µM

---

test system: A549 NSCLC; experiment: NCI tumour cell line growth inhibition, 48 h
readoutLabel: TGI (µM)
One number for each entry, in µM.

O=S(=O)(/C=C/C(=C/c1ccccc1)S(=O)(=O)c1ccccc1)c1ccccc1 :: 4.65

Please look at the items below and tell me TGI for each one, in order.
1. Cc1cc(N(CCC#N)CCC#N)ccc1/C(N=Nc1cccc(Cl)c1)=N/NC(=O)c1cc(Cl)ccc1O
2. CCOC(=O)C(C(=O)OCC)=C1NC2(c3ccccc3Nc3ccccc32)C(C#N)S1 (configuration not stated)
3. CN(CCNCc1ccccn1)CCNCc1ccccn1

## Output
75.7
20.9
8.07
